Data provenance: patent US20110038869A1

- TARGET OR SYSTEM: T1, CD32bECDHis (human, UniProt P31994 43-223, limits assumed)
- T1 construct: Produced in HEK-293F cells; also called extracellular domain of CD32b with C-terminal His tag; soluble CD32b
- T1 sequence (looked up): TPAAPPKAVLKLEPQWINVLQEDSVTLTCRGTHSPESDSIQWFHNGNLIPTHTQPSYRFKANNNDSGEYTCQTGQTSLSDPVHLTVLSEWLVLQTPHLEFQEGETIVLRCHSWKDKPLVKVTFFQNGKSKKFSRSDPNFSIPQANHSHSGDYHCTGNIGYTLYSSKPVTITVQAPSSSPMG
- PROCEDURE TEXT: SPR BIAcore 3000, antibody immobilized, CD32bECDHis analyte
# kon annotations
Field format: number, assumed M⁻¹ s⁻¹, no unit text.

Answered examples (5):
Antibody 016 (antibody, human IgG1, V domains shown, Human antibody; also called HuMab 016) VH: QVQLVESGGGVVQPGRSLRLSCAASGFTFSSYGIHWVRQAPGKGLEWVAVIGYDGSDKNYADSVKGRFTIFRDNSKNTLYLQMNSLRAEDTAVYYCARDQLGDAFDIWGQGTMVTVSS VL: EIVLTQSPATLSLSPGERATLSCKASQSVSSSLAWYQQKPGQAPRLLIYDASNRATGIPARFSGSGSGTDFTLTISSLEPEDFAVYYCQQRSNWPPYTFGQGTKLEIKR    2.66e+06
Antibody 022 (antibody, V domains shown, also called HuMab 022) VH: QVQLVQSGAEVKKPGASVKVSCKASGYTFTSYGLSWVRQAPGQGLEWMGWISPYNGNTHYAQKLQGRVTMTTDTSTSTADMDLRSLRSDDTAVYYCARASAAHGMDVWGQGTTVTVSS VL: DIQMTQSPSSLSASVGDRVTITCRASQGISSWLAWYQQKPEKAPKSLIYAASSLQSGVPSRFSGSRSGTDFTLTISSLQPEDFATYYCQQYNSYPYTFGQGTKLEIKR    1.48e+06
Antibody 024 (antibody, V domains shown, also called HuMab 024) VH: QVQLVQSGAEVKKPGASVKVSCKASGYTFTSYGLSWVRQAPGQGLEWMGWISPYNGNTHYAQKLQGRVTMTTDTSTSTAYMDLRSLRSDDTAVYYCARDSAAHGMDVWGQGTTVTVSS VL: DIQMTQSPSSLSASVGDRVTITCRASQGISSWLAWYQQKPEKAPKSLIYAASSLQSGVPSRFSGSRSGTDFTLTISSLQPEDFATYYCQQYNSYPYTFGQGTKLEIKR    1.44e+06
Antibody 020 (antibody, V domains shown, also called HuMab 020) VH: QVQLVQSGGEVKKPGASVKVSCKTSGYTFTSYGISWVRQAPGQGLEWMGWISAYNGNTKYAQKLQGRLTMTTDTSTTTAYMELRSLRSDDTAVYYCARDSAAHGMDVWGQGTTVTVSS VL: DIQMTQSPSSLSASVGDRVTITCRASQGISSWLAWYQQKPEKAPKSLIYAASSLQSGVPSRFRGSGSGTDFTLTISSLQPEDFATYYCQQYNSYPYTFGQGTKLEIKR    1.54e+06
Antibody 038 (antibody, human IgG1, V domains shown, Human antibody; also called HuMab 038) VH: QVQLVESGGGVVQPGRSLRLSCAASGFTFSTYGMHWVRQAPGKGLEWVAVISHDGSDKYYADSVKGRFTISRDNSKNTLYLQMNSLRAEDTAVYYCARDQSIIETFDYWGQGTLVTVSS VL: EIVLTQSPATLSLSPGERATLSCRASQSVSSYLAWYQQKPGQAPRLLIYDASNRATGIPARFSGSGSGTDFTLTISSLEPEDFAVYYCQQRSNWGFTFGPGTKVDIKR    1.54e+06

Consider Antibody 026 (antibody, V domains shown, Human antibody; also called HuMab 026) VH: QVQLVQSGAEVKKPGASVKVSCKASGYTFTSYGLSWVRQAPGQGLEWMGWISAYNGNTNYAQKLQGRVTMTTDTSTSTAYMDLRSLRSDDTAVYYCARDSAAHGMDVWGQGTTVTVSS VL: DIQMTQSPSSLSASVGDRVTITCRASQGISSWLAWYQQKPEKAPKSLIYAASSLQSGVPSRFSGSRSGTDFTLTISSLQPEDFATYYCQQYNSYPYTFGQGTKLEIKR . Its measured kon is 1.4e+06

The reported kon of the binder Antibody 028 (antibody, V domains shown, List 1 gives no VL for antibody 028; The VL is therefore uncertain; also called HuMab 028) VH: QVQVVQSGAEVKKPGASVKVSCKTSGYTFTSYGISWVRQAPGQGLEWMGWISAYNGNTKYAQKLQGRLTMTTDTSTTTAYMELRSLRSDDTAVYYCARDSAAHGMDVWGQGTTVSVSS VL: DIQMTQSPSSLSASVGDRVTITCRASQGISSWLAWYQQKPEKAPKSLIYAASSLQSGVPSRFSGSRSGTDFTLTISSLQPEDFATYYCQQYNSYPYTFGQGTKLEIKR was 1.58e+06
